# experimental-system: human P2X4 receptors (Homo sapiens, UniProt Q99571)
# Sequence (Q99571 whole entry): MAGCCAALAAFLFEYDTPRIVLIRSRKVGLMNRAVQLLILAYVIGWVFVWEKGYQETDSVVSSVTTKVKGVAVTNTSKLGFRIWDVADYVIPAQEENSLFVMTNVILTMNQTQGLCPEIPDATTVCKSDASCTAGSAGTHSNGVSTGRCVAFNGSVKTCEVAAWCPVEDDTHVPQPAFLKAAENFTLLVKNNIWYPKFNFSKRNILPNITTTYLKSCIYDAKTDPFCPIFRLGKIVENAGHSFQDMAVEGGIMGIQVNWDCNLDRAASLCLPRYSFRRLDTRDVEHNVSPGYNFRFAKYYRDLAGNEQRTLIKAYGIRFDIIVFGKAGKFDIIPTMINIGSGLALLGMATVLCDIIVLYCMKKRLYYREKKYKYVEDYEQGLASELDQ
# assay-method-text: P2X4 receptor antagonism, intracellular calcium influx assay (Fura-2 AM, ATP-induced)
# Type: cell-based
# particulars: Table 19; 1321N1 cells stably expressing human P2X4 receptors; compound added 15 min before ATP; fluorescence ratio F340/F380 vs control; read-out: Inhibition activities (IC50 μM)
Counter-ions that a name gives are not always drawn.
Listed next: entries and their corresponding IC50.
Supply the numeric figure in µM, leaving out any unit text.

{"molecule": "O=C1CC(=O)N(c2cccc(O)c2)c2ccc3c(c2N1)CCCC3", "IC50 / µM": 3.9}

Notebook entry, human P2X4 receptors (Homo sapiens, UniProt Q99571) assay: IC50 of O=C1CC(=O)N(c2cccc(-c3nnn[nH]3)c2)c2ccc3c(c2N1)CCC3 [Example 5, sodium salt] = ?
0.97
